Molecular target: UniProt:P11509
Test: Inhibition of CYP2A6 in human liver microsomes assessed as inhibition of coumarin 7-hydroxylation after 30 mins preincubation by plate reader
Assay type: ADME, Microsome
Metric Name: IC50 (µM)

a = NCc1ccc2sccc2c1
b = NCc1csc2ccccc12
c = O=Cc1csc2ccccc12
Hello, I need these entries ordered by IC50, highest reading first. Thanks! Please list the labels in the order you were asked to rank them.
a, b, c
(a: 0.6 µM, b: 0.2 µM, c: 0.05 µM)

====

Molecular target: CYP2A6 (Homo sapiens)
Sequence (P11509 whole entry): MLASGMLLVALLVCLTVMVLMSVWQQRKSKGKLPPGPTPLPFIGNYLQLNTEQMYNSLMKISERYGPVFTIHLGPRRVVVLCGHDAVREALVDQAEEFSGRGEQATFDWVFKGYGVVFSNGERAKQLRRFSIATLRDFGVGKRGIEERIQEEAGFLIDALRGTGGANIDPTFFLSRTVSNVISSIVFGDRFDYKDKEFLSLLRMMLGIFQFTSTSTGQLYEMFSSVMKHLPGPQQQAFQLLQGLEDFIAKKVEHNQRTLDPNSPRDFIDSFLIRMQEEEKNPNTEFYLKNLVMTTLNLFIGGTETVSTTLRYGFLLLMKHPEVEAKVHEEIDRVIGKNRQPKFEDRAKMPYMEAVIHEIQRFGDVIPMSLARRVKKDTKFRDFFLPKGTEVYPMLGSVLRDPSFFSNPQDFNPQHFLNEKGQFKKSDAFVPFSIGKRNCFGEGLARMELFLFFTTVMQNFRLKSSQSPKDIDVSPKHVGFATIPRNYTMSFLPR
Assay: Irreversible inhibition of CYP2A6 in human liver microsomes assessed as coumarin 7-hydroxylation activity by double reciprocal plot analysis in presence of NADPH
Format: ADME, Microsome
Conditions: human, liver microsomes, probe coumarin (7-hydroxylation)
Metric Name: kinact (s⁻¹)
Could you give me the number in s⁻¹? Just the number is fine.

Report kinact for O=Cc1csc2ccccc12 please.
0.006
